# key: entry, value: pIC50
target: DCAF15 (Homo sapiens); assay: HTRF competition assay, binary interaction between compounds and DCAF15; format: binding; settings: competition with Alexa Fluor 647 tracer, His-tagged DCAF15 complex
pIC50: −log10 of the molar value.

Record excerpt, results attached:
O=C(c1ccc(S(=O)(=O)Nc2ccc(Cl)c3c(Cl)c[nH]c23)c(F)c1)N1CCC(c2ccnc(C(F)F)c2)CC1	< 4.00
NC1CCC(Oc2ccc(S(=O)(=O)Nc3ccc(Cl)c4c(Cl)c[nH]c34)cc2)CC1 (stereo not shown)	5.00 to 6.00
CN1CCN(C(=O)c2ccc(S(=O)(=O)Nc3ccc(Cl)c4c(Cl)c[nH]c34)cc2)CC1	5.00 to 6.00

Task item: Report pIC50 for CN1CC[C@@H](c2ccc(F)cc2)[C@H](COc2ccc(S(=O)(=O)Nc3ccc(Cl)c4c(Cl)c[nH]c34)cc2)C1 please.
Reply: 5.00 to 6.00

Task item: Again, but for COc1cccc(Oc2ccc(CNC(=O)c3ccc(S(=O)(=O)Nc4ccc(Cl)c5c(Cl)c[nH]c45)c(F)c3)cn2)c1
Reply: < 4.00

Task item: Again, but for O=S(=O)(Nc1ccc(Cl)c2c(Cl)c[nH]c12)c1ccc(O[C@@H]2C[C@@H]3C[C@@H]3C2)cc1
Reply: < 4.00

Task item: Again, but for CCc1cnc(N2CCC(CCCOc3cccc(S(=O)(=O)Nc4ccc(Cl)c5c(Cl)c[nH]c45)c3)CC2)nc1
Reply: < 4.00

----------
# key: entry, value: EC50
target: DCAF15/RBM39 (Homo sapiens, UniProt Q14498+Q66K64); assay: AlphaLISA compound-induced DCAF15-RBM39 ternary complex formation; conditions: His-tagged DCAF15 complex and biotin-carrying RBM39

Record excerpt, results attached:
NS(=O)(=O)c1ccc(S(=O)(=O)Nc2cccc3c(Cl)c[nH]c23)cc1 [Indisulam, indisulam, reference compound]	< 1000 nM
NCCc1ccc(COc2cccc(S(=O)(=O)Nc3ccc(Cl)c4c(Cl)c[nH]c34)c2)cc1	1000 to 10000 nM
O=S(=O)(Nc1ccc(Cl)c2c(Cl)c[nH]c12)c1ccc(OC[C@H]2[C@@H]3CNC[C@@H]32)cc1	< 1000 nM
O=C(N[C@H]1CCc2ccccc21)c1ccc(S(=O)(=O)Nc2ccc(Cl)c3c(Cl)c[nH]c23)c(F)c1	> 100000 nM
O=C(c1ccc(S(=O)(=O)Nc2ccc(Cl)c3c(Cl)c[nH]c23)c(F)c1)N1CCC(Oc2cccnc2)CC1	< 1000 nM

Task item: Report EC50 for COc1cccc(Oc2ccc(CNC(=O)c3cccc(S(=O)(=O)Nc4ccc(Cl)c5c(Cl)c[nH]c45)c3F)cn2)c1 please.
Reply: 1000 to 10000 nM

Task item: Again, but for O=S(=O)(Nc1ccc(Cl)c2c(Cl)c[nH]c12)c1ccc(Oc2ccc(F)cc2)c(Br)c1
Reply: 1000 to 10000 nM

Task item: Again, but for CC1(CCOc2ccc(S(=O)(=O)Nc3ccc(Cl)c4c(Cl)c[nH]c34)cc2)CCNCC1
Reply: < 1000 nM

----------
target: DCAF15/RBM39 (Homo sapiens, UniProt Q14498+Q66K64); experiment: AlphaLISA compound-induced DCAF15-RBM39 ternary complex formation; conditions: His-tagged DCAF15 complex and biotin-carrying RBM39
MEASURE NAME: EC50

Record excerpt, results attached:
NC[C@H]1CC[C@H](Oc2ccc(S(=O)(=O)Nc3ccc(Cl)c4c(Cl)c[nH]c34)cc2)CC1 [Compound 15]	1 to 10 µM
O=S(=O)(Nc1ccc(Cl)c2c(Cl)c[nH]c12)c1cccc(OCc2ccc3c(c2)CNC3)c1 [Compound 65]	< 1 µM
Cc1ccnc(CNC(=O)c2ccc(S(=O)(=O)Nc3ccc(Cl)c4c(Cl)c[nH]c34)c(F)c2)c1 [Compound 179]	< 1 µM

Task item: Report EC50 for CCOCCOc1ccc(S(=O)(=O)Nc2ccc(Cl)c3c(Cl)c[nH]c23)cc1C(C)C [Compound 232] please.
Reply: 1 to 10 µM

Task item: Again, but for O=S(=O)(Nc1ccc(Cl)c2c(Cl)c[nH]c12)c1cccc(OCCCc2ccc3c(c2)OCO3)c1 [Compound 111]
Reply: > 100 µM

Task item: Again, but for NCCc1ccc(COc2ccc(S(=O)(=O)Nc3ccc(Cl)c4c(Cl)c[nH]c34)cc2)cc1 [Compound 60]
Reply: 1 to 10 µM
